test: Intrinsic clearance in rat hepatocytes assessed per 10^6 cells; format: ADME, cell-based, Hepatocyte; conditions: read-out: CLH
Reported hepatocyte CLint values for the following compounds.
Give just the number in µL/min/1e6 cells; leave the unit off.

# structure_string, result_unit, measured
rows = [
    ("CNC(=O)c1sc(N2CC3CC2(CNC(=O)c2c[nH]c4ncccc24)C3)nc1C(F)(F)F", "µL/min/1e6 cells", 33),
]

// Input: CNC(=O)c1cnc(Nc2ccc(OC)cc2C)nc1NC1CCCC1 . Output its hepatocyte CLint only.
130

// Input: CNc1nc(OC2CCCC2)nc2c1ncn2Cc1c(F)cccc1F . Output its hepatocyte CLint only.
190
